In this section we review reported one-hybrid fitness for binding parS DNA values for a set of variants.
B1: Caulobacter ParB omega fusion; a variant is named by its letters at X, in order, B8GW30 (parent)
chain: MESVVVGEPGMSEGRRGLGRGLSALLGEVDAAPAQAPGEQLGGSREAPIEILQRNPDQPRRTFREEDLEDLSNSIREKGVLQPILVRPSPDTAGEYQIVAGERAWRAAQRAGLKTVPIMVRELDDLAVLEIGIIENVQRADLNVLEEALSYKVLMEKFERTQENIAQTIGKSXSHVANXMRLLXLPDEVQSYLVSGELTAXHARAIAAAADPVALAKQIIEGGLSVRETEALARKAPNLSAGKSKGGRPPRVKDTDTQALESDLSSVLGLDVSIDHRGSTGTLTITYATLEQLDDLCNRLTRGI

# Variants of: B1
# TEST DETAILS: one-hybrid fitness for binding parS DNA (scaled: cognate 1, non-cognate 0); higher = stronger binding
# CONDITION INFO: with parS DNA site
Over roughly 81,000 sequences, “one-hybrid fitness for binding parS DNA” has its median near -0.17; the highest 2% begin near 0.51. What follows is part of a selection rich in the highest values, with near analogues and random picks from the rest.

Illustrative cases are given below, each with its answer.
1) RVKS	0.831
2) LGAW	≤ 0.2
3) RSFD	≤ 0.2
4) YAAA	≤ 0.2
5) RPFS	≤ 0.2
6) RAMA	0.565
7) RRNE	≤ 0.2
8) PLTK	≤ 0.2

The variant listed as RLNH shows one-hybrid fitness for binding parS DNA equal to 0.252

The variant listed as RVAF shows one-hybrid fitness for binding parS DNA equal to 0.259

The variant listed as RTQR shows one-hybrid fitness for binding parS DNA equal to ≤ 0.2

The variant listed as TLQM shows one-hybrid fitness for binding parS DNA equal to ≤ 0.2

The variant listed as TFGN shows one-hybrid fitness for binding parS DNA equal to ≤ 0.2

The variant listed as QQPP shows one-hybrid fitness for binding parS DNA equal to ≤ 0.2

The variant listed as IRFN shows one-hybrid fitness for binding parS DNA equal to ≤ 0.2

The variant listed as RTIP shows one-hybrid fitness for binding parS DNA equal to ≤ 0.2

The variant listed as RIPM shows one-hybrid fitness for binding parS DNA equal to ≤ 0.2

The variant listed as RRNG shows one-hybrid fitness for binding parS DNA equal to 0.704

The variant listed as RTLN shows one-hybrid fitness for binding parS DNA equal to 0.43

The variant listed as RCFD shows one-hybrid fitness for binding parS DNA equal to ≤ 0.2

The variant listed as RIPC shows one-hybrid fitness for binding parS DNA equal to 0.626

The variant listed as RLNS shows one-hybrid fitness for binding parS DNA equal to 0.932

The variant listed as RLHP shows one-hybrid fitness for binding parS DNA equal to ≤ 0.2

The variant listed as RSFP shows one-hybrid fitness for binding parS DNA equal to ≤ 0.2

The variant listed as RLIG shows one-hybrid fitness for binding parS DNA equal to 0.934

The variant listed as RKMQ shows one-hybrid fitness for binding parS DNA equal to ≤ 0.2

The variant listed as RHMK shows one-hybrid fitness for binding parS DNA equal to ≤ 0.2

The variant listed as RSSS shows one-hybrid fitness for binding parS DNA equal to 0.99
